Test system: HeLa
Protocol text: Primary qHTS to identify gynecologic anti-cancer compounds using libraries of approved drugs and bioactive compounds (AID 1345084); further: nearly all actives have a fitted effect of over 55% in size
Experimental setup: Gynecologic cancer cell panel viability, ATPlite luminescence, 48 h; series mostly up to 57.5 µM
Results filed as inconclusive are left out. Active and inactive are the calls of the source. The call rests on the fitted dose curve; in most records, active means well fitted cell-killing curve with a large enough effect; inconclusive means small, poorly fitted or top-dose-only effect, or effect the other way; inactive means flat fitted curve, though single readings scatter.
Readout kind: outcome

| Compound | outcome |
| --- | --- |
| C/C=C(\C)C(=O)O[C@H]1C=C(CO)C(=O)[C@H](OC(C)=O)[C@H]1C(C)C | inactive |
| COc1ccccc1OCCNCC(O)CCOc1cccc2[nH]c3ccccc3c12 (centres undefined) | inactive |
| CCOC(=O)c1csc(Nc2ccc(Cl)cc2)n1 | inactive |
| NS(=O)(=O)c1ccc(N2CCN(CC[C@@H]3OCCc4ccccc43)CC2)cc1 | inactive |
| Cc1nc(C(=O)N2CCC[C@H]2Cc2nnc(-c3ccccc3)o2)c(-c2ccccc2F)s1 | inactive |

Each of the following entries comes with a recorded value; kindly state outcome for each.
1. C[C@@H]1C[C@H](C)CN(CCC(=O)Nc2ccc(Br)cc2)C1
2. CC(=O)O[C@H]1[C@@]2(O)C[C@H](C)[C@H](OC(=O)c3ccccc3)[C@@H]2[C@@H](OC(=O)CO)[C@]2(OC(C)=O)C[C@H]3C(=O)C(C)(C)C[C@@H]3[C@@]1(C)[C@H]2OC(C)=O
3. Cc1cc(-c2cc(OC(=O)c3ccccc3)ccc2Cl)cc2nnc(Nc3ccc(OCCN4CCCC4)cc3)nc12
4. COc1cc(Br)c(S(=O)(=O)Nc2ccc(Cl)c(O[C@@H]3CCN(C)C3)c2)cc1OC

Out:
["inactive", "inactive", "inactive", "inactive"]
